target-or-test-system: PD-1 (UniProt Q15116 25-167, limits assumed)
Sequence (Q15116 25-167 limits assumed): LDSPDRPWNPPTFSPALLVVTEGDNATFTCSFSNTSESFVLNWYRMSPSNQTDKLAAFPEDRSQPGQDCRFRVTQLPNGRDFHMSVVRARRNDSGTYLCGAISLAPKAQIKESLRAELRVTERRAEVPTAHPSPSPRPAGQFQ
assay-overview: ELISA, conjugate vs WT antibody
Measured binding activity (% of WT) accompanies every entry in the list below.
Express your answer in %, writing the number without its unit.

Known results for binders:
{"binder": "anti-PD-1 antibody 2 heavy chain K65C-R4-7 (antibody, human IgG4 S228P, kappa, V domains shown, R4-7 on Cys 65) VH: QVQLVESGGGVVQPGRSLRLDCKASGITFSNSGMHWVRQAPGKGLEWVAVIWYDGSKRYYADSVCGRFTISRDNSKNTLFLQMNSLRAEDTAVYYCATNDDYWGQGTLVTVSS VL: EIVLTQSPATLSLSPGERATLSCRASQSVSSYLAWYQQKPGQAPRLLIYDASNRATGIPARFSGSGSGTDFTLTISSLEPEDFAVYYCQQSSNWPRTFGQGTKVEIKR", "value-kind": "binding activity (% of WT)", "value-observed": 92.1}
{"binder": "anti-PD-1 antibody 2 heavy chain S32C-R4-1 (antibody, human IgG4 S228P, kappa, V domains shown, R4-1 on Cys 32) VH: QVQLVESGGGVVQPGRSLRLDCKASGITFSNCGMHWVRQAPGKGLEWVAVIWYDGSKRYYADSVKGRFTISRDNSKNTLFLQMNSLRAEDTAVYYCATNDDYWGQGTLVTVSS VL: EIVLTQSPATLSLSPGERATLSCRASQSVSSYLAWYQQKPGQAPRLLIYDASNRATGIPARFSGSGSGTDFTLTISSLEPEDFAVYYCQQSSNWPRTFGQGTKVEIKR", "value-kind": "binding activity (% of WT)", "value-observed": 86.8}
{"binder": "anti-PD-1 antibody 2 heavy chain S30C-R4-1 (antibody, human IgG4 S228P, kappa, V domains shown, R4-1 on Cys 30) VH: QVQLVESGGGVVQPGRSLRLDCKASGITFCNSGMHWVRQAPGKGLEWVAVIWYDGSKRYYADSVKGRFTISRDNSKNTLFLQMNSLRAEDTAVYYCATNDDYWGQGTLVTVSS VL: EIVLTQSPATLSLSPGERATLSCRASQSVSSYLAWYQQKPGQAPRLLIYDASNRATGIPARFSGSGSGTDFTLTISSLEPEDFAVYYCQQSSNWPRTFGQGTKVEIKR", "value-kind": "binding activity (% of WT)", "value-observed": 107}
{"binder": "anti-PD-1 antibody 2 heavy chain A61C-R4-4 (antibody, human IgG4 S228P, kappa, V domains shown, R4-4 on Cys 61) VH: QVQLVESGGGVVQPGRSLRLDCKASGITFSNSGMHWVRQAPGKGLEWVAVIWYDGSKRYYCDSVKGRFTISRDNSKNTLFLQMNSLRAEDTAVYYCATNDDYWGQGTLVTVSS VL: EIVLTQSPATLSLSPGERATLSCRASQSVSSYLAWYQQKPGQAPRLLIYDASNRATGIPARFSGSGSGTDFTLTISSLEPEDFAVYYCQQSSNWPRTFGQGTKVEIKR", "value-kind": "binding activity (% of WT)", "value-observed": 83.9}

**Q:** For the binder anti-PD-1 antibody 2 heavy chain K57C-R4-7 (antibody, human IgG4 S228P, kappa, V domains shown, R4-7 on Cys 57) VH: QVQLVESGGGVVQPGRSLRLDCKASGITFSNSGMHWVRQAPGKGLEWVAVIWYDGSCRYYADSVKGRFTISRDNSKNTLFLQMNSLRAEDTAVYYCATNDDYWGQGTLVTVSS VL: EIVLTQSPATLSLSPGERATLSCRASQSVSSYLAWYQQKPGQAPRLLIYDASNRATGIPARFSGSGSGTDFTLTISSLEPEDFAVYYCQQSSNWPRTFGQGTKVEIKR , what binding activity (% of WT) is on record?
**A:** 89.7

**Q:** For the binder anti-PD-1 antibody 2 heavy chain Y53C-R4-4 (antibody, human IgG4 S228P, kappa, V domains shown, R4-4 on Cys 53) VH: QVQLVESGGGVVQPGRSLRLDCKASGITFSNSGMHWVRQAPGKGLEWVAVIWCDGSKRYYADSVKGRFTISRDNSKNTLFLQMNSLRAEDTAVYYCATNDDYWGQGTLVTVSS VL: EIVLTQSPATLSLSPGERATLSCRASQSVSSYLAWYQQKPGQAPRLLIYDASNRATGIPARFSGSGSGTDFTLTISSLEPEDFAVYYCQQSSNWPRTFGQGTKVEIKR , what binding activity (% of WT) is on record?
**A:** 91.6
